test system: Karpas-299 cell line; assay: Hematological cell line viability/apoptosis flow cytometry assay; assay type: cell-based; settings: Homo sapiens; Karpas-299 (TCL); 120 h; read-out: % Viable Cells IC50
pIC50: −log10 of the molar value.
READOUT_LABEL: pIC50

[[record]]
structure_as_smiles = "O=C1CC[C@H](N2C(=O)c3cccc(NCc4ccc(CN5CC(N6CCOCC6)C5)cc4F)c3C2=O)C(=O)N1"
assay_result = 7.92


###

tested on: MDS-L cell line; experiment: Hematological cell line viability/apoptosis flow cytometry assay; assay type: cell-based; settings: 120 h
READOUT_LABEL: EC50 (nM)

[[record]]
structure_as_smiles = "O=C1CC[C@H](N2C(=O)c3cccc(NCc4ccc(CN5CC(N6CCOCC6)C5)cc4F)c3C2=O)C(=O)N1"
assay_result = 1560


###

test system: L-591 cell line; assay: Hematological cell line viability/apoptosis flow cytometry assay; assay type: cell-based; conditions: L-591 (HL); 120 h; read-out: % Viable Cells IC50
READOUT_LABEL: IC50

[[record]]
structure_as_smiles = "O=C1CC[C@H](N2C(=O)c3cccc(NCc4ccc(CN5CC(N6CCOCC6)C5)cc4F)c3C2=O)C(=O)N1"
assay_result = "0.3 nM"


###

system: U-2946 cell line; assay: Hematological cell line viability/apoptosis flow cytometry assay; type: cell-based; conditions: U-2946 (DLBCL); 120 h
READOUT_LABEL: EC50

[[record]]
structure_as_smiles = "O=C1CC[C@H](N2C(=O)c3cccc(NCc4ccc(CN5CC(N6CCOCC6)C5)cc4F)c3C2=O)C(=O)N1"
measured_target = "U-2946 cell line"
assay_result = "0.192 µM"


###

test system: RIVA cell line; test: Hematological cell line viability/apoptosis flow cytometry assay; format: cell-based; settings: RIVA (DLBCL ABC); 120 h
pEC50: −log10 of the molar value.
READOUT_LABEL: pEC50

[[record]]
structure_as_smiles = "O=C1CC[C@H](N2C(=O)c3cccc(NCc4ccc(CN5CC(N6CCOCC6)C5)cc4F)c3C2=O)C(=O)N1"
assay_result = 7.75


###

system: I83-E95 cell line; experiment: Hematological cell line viability/apoptosis flow cytometry assay; assay type: cell-based; details: I83-E95 (CLL); 120 h; read-out: % Viable Cells IC50
pIC50: −log10 of the molar value.
READOUT_LABEL: pIC50

[[record]]
structure_as_smiles = "O=C1CC[C@H](N2C(=O)c3cccc(NCc4ccc(CN5CC(N6CCOCC6)C5)cc4F)c3C2=O)C(=O)N1"
assay_result = 7.76


###

tested on: BL-41 cell line; test: Hematological cell line viability/apoptosis flow cytometry assay; assay type: cell-based; conditions: Homo sapiens; BL-41 (BL); 120 h
pEC50: −log10 of the molar value.
READOUT_LABEL: pEC50

[[record]]
structure_as_smiles = "O=C1CC[C@H](N2C(=O)c3cccc(NCc4ccc(CN5CC(N6CCOCC6)C5)cc4F)c3C2=O)C(=O)N1"
readout_label = "pEC50"
assay_result = 5.16


###

Test system: SVSL cell line
Assay: Hematological cell line viability/apoptosis flow cytometry assay
Format: cell-based
Conditions: SVSL (MZL, SMZL); 120 h; read-out: % Viable Cells IC50
Procedure: Cell Proliferation and Viability Assay Using Hematological Cell Lines: The following exemplary anti-proliferative assay uses exemplary hematological cell lines in the following. The in vitro growth inhibitory activity of Compound 1 described herein was evaluated using a 384-well flow cytometry assay. The cell lines were plated in 384-well flat bottom plates and assessed with increasing concentrations of compound ranging from 0.00015 to 10 μM or dimethyl sulfoxide (DMSO) control. […]
pIC50: −log10 of the molar value.
READOUT_LABEL: pIC50

[[record]]
compound = "O=C1CC[C@H](N2C(=O)c3cccc(NCc4ccc(CN5CC(N6CCOCC6)C5)cc4F)c3C2=O)C(=O)N1 [Compound 1]"
assay_result = 7.02


The origin of these recorded values is patent US11578056B2.
